# Test system: LoVo
# ASSAY_NAME: SRB colorimetric cell growth inhibition assay, LoVo
# Type: cell-based
# APPLIED_CONDITIONS: Homo sapiens, LoVo; GI=growth inhibition; read-out: GI50 LOVO
# Protocol: The finality of these assays is to interrupt the growth of an “in vitro” tumor cell culture by means a continued exhibition of the cells to the sample to be testing. A colorimetric type of assay, using sulforhodamine B (SRB) reaction has been adapted for a quantitative measurement of cell growth and viability (following the technique described by P. A. Skehan, et al., J. Natl. Cancer Inst. 1990, 82, 1107-1112). […] The values for mean +/− SD of data from triplicate wells are calculated. […]
compounds and their reported GI50
The answer consists of two parts: a number and, after it, its unit.

Answered cases to consult:
[
  {
    "SMI": "COc1cc(-c2c3n(c4c(=O)[nH]c5cc(O)c(OC)cc5c24)CCc2cc(O)c(OC)cc2-3)ccc1O",
    "ASSAY_TARGET": "LoVo",
    "GI50": "468 nM"
  },
  {
    "SMI": "COc1cc2ccn3c(c(-c4ccc(OC(=O)[C@@H](N)Cc5ccccc5)c(OC)c4)c4c5cc(OC)c(OC(=O)[C@@H](N)Cc6ccccc6)cc5oc(=O)c43)c2cc1OC",
    "ASSAY_TARGET": "LoVo",
    "GI50": "664 nM"
  },
  {
    "SMI": "COc1cc(-c2c3c4cc(OC)c(OC(=O)[C@@H](N)CC(C)C)cc4oc(=O)c3n3ccc4cc(OC(=O)[C@@H](N)CC(C)C)c(OC)cc4c23)ccc1OC(=O)[C@@H](N)CC(C)C",
    "ASSAY_TARGET": "LoVo",
    "GI50": "331 nM"
  },
  {
    "SMI": "COc1cc(-c2c3c4cc(OC)c(OC(=O)[C@@H]5CCCN5)cc4oc(=O)c3n3ccc4c(OC(=O)[C@@H]5CCCN5)c(OC)c(OC)cc4c23)ccc1OC(=O)[C@@H]1CCCN1",
    "ASSAY_TARGET": "LoVo",
    "GI50": "383 nM"
  }
]

// below: GI50 requested for another compound
Lab book: GI50 of COc1cc(-c2c3c4cc(OC)c(OC(=O)[C@H](N)C(C)C)cc4oc(=O)c3n3ccc4c(OC(=O)[C@H](N)C(C)C)c(OC)c(OC)cc4c23)ccc1OC(=O)[C@H](N)C(C)C noted as 635 nM

====

# Tested on: A-549
# ASSAY_NAME: SRB colorimetric cell growth inhibition assay, A-549
# Format: cell-based
# APPLIED_CONDITIONS: Homo sapiens, A549, A-549; cell killing (cytotoxic effect); read-out: LC50 A-549
MEASURED_QUANTITY: CC50 (µM)
Give the value in µM but do not write µM after it.

Examples with their reported CC50 follow.
[
  {
    "SMI": "C=CCOC(=O)N[C@@H](C)C(=O)Oc1ccc(-c2c3c4cc(OC)c(OC(=O)[C@H](C)NC(=O)OCC=C)cc4oc(=O)c3n3ccc4cc(OC(=O)[C@H](C)NC(=O)OCC=C)c(OC)cc4c23)cc1OC",
    "ASSAY_TARGET": "A-549",
    "RESULT": 10.4
  },
  {
    "SMI": "COc1cc2c(cc1OC)-c1c(-c3ccc(OC(=O)CCc4ccccc4)c(OC)c3)c3c4cc(OC)c(OC(=O)CCc5ccccc5)cc4oc(=O)c3n1CC2",
    "ASSAY_TARGET": "A-549",
    "RESULT": 12.8
  },
  {
    "SMI": "COc1cc(-c2c3n(c4c(=O)oc5cc(OC(=O)[C@@H](N)Cc6ccccc6)c(OC)cc5c24)CCc2cc(OC(=O)[C@@H](N)Cc4ccccc4)c(OC)cc2-3)ccc1OC(=O)[C@@H](N)Cc1ccccc1",
    "ASSAY_TARGET": "A-549",
    "RESULT": 5.87
  },
  {
    "SMI": "COc1cc(-c2c3c4cc(OC)c(OC(=O)C[C@H](N)C(C)C)cc4oc(=O)c3n3ccc4cc(OC(=O)C[C@H](N)C(C)C)c(OC)cc4c23)ccc1OC(=O)C[C@H](N)C(C)C",
    "ASSAY_TARGET": "A-549",
    "RESULT": 2.77
  }
]

Measured CC50 of COc1cc2c(cc1O)CCn1c-2c(Br)c2c3cc(OC)c(O)cc3oc(=O)c21 : 21.8

====

# Test system: HT-29
# ASSAY_NAME: SRB colorimetric cell growth inhibition assay, HT-29
# Assay type: cell-based
# APPLIED_CONDITIONS: Homo sapiens, HT-29, HT-29; GI=growth inhibition; read-out: GI50 HT-29
MEASURED_QUANTITY: GI50 (µM)
Lab book: enter the figure in µM, no units written.

Observe how each entry below is paired with its result.
[
  {
    "COMPOUND": "COc1cc2c(cc1OC)-c1c(-c3ccc(OS(C)(=O)=O)c(OC)c3)c3c4cc(OC)c(OS(C)(=O)=O)cc4oc(=O)c3n1CC2 [Compound 92]",
    "ASSAY_TARGET": "HT-29",
    "RESULT": 14.9
  },
  {
    "COMPOUND": "COc1cc(-c2c3c4cc(OC)c(OC(=O)[C@@H]5CCCN5)cc4oc(=O)c3n3ccc4cc(OC(=O)[C@@H]5CCCN5)c(OC)cc4c23)ccc1OC(=O)[C@@H]1CCCN1 [Compound 180]",
    "ASSAY_TARGET": "HT-29",
    "RESULT": 11.1
  },
  {
    "COMPOUND": "COc1cc(-c2c3c4cc(OC)c(OC(=O)CCCCCN)cc4oc(=O)c3n3ccc4c(OC(=O)CCCCCN)c(OC)c(OC)cc4c23)ccc1OC(=O)CCCCCN [Compound 193]",
    "ASSAY_TARGET": "HT-29",
    "RESULT": 10.2
  },
  {
    "COMPOUND": "COc1cc(-c2c3n(c4c(=O)oc5cc(OC(=O)CCc6ccccc6)c(OC)cc5c24)CCc2cc(OC(=O)CCc4ccccc4)c(OC)cc2-3)ccc1OC(=O)CCc1ccccc1 [Compound 11]",
    "ASSAY_TARGET": "HT-29",
    "RESULT": 0.0384
  }
]

With HT-29 as the test system, COc1cc(-c2c3n(c4c(=O)oc5cc(O)c(OC)cc5c24)CCc2cc(O)c(OC)cc2-3)ccc1O [Compound 109] showed GI50 of 4.81

For the compound COc1cc(-c2c3n(c4c(=O)oc5cc(OC(=O)[C@@H](N)CO)c(OC)cc5c24)CCc2c-3cc(OC)c(OC)c2OC(=O)[C@@H](N)CO)ccc1OC(=O)[C@@H](N)CO [Compound 59] , the measured GI50 on HT-29 was 1.97

====

# Tested on: A-549
# ASSAY_NAME: SRB colorimetric cell growth inhibition assay, A-549
# Assay type: cell-based
# APPLIED_CONDITIONS: Homo sapiens, A549, read-out: LC50 A-549, A-549; LC=cell killing (cytotoxic effect)
// reported CC50 per item
Write it as a number; the unit µM goes unstated.

Consider the worked cases shown below.
[
  {
    "COMPOUND": "COc1cc(-c2c3n(c4c(=O)oc5cc(OC(=O)[C@@H](N)CO)c(OC)cc5c24)CCc2c-3cc(OC)c(OC)c2OC(=O)[C@@H](N)CO)ccc1OC(=O)[C@@H](N)CO [Compound 59]",
    "CC50 / µM": 6.36
  },
  {
    "COMPOUND": "COc1cc(-c2c3n(c4c(=O)oc5cc(OC(=O)[C@@H](N)C(C)C)c(OC)cc5c24)CCc2cc(OC(=O)[C@@H](N)C(C)C)c(OC)cc2-3)ccc1OC(=O)[C@@H](N)C(C)C [Compound 37]",
    "CC50 / µM": 8.38
  },
  {
    "COMPOUND": "COc1cc(-c2c3c4cc(OC)c(OC(=O)[C@@H](N)C(C)C)cc4oc(=O)c3n3ccc4c(OC(=O)[C@@H](N)C(C)C)c(OC)c(OC)cc4c23)ccc1OC(=O)[C@@H](N)C(C)C [Compound 35]",
    "CC50 / µM": 6.09
  },
  {
    "COMPOUND": "COc1cc(-c2c3n(c4c(=O)oc5cc(OC(=O)[C@H](CO)NC(=O)OC(C)(C)C)c(OC)cc5c24)CCc2c-3cc(OC)c(OC)c2OC(=O)[C@H](CO)NC(=O)OC(C)(C)C)ccc1OC(=O)[C@H](CO)NC(=O)OC(C)(C)C [Compound 60]",
    "CC50 / µM": 9.15
  },
  {
    "COMPOUND": "COc1cc(-c2c3n(c4c(=O)oc5cc(OC(=O)[C@H](N)C(C)C)c(OC)cc5c24)CCc2cc(OC(=O)[C@H](N)C(C)C)c(OC)cc2-3)ccc1OC(=O)[C@H](N)C(C)C [Compound 32]",
    "CC50 / µM": 7.33
  }
]

API: the following record is the query input.
Per the records, this compound ( COc1cc(-c2c3c4cc(OC)c(OC(=O)[C@@H](N)CCCCNC(=O)OCc5ccccc5)cc4oc(=O)c3n3ccc4c(OC(=O)[C@@H](N)CCCCNC(=O)OCc5ccccc5)c(OC)c(OC)cc4c23)ccc1OC(=O)[C@@H](N)CCCCNC(=O)OCc1ccccc1 [Compound 44] ) has CC50 equal to 7.6

The measurements presented in this section are drawn from patent US7396837B2.
